Origin of the recorded values: ChEMBL document CHEMBL1123683

target: Prostaglandin G/H synthase 1 (Ovis aries) (UniProt P05979); assay: Inhibition of microsomal PGH synthase isolated from sheep seminal vesicles (SSV) estimated as rate of oxygen consumption in presence of 500 uM of the compound; Compound was found to be insoluble
Sequence (P05979 whole entry, looked up): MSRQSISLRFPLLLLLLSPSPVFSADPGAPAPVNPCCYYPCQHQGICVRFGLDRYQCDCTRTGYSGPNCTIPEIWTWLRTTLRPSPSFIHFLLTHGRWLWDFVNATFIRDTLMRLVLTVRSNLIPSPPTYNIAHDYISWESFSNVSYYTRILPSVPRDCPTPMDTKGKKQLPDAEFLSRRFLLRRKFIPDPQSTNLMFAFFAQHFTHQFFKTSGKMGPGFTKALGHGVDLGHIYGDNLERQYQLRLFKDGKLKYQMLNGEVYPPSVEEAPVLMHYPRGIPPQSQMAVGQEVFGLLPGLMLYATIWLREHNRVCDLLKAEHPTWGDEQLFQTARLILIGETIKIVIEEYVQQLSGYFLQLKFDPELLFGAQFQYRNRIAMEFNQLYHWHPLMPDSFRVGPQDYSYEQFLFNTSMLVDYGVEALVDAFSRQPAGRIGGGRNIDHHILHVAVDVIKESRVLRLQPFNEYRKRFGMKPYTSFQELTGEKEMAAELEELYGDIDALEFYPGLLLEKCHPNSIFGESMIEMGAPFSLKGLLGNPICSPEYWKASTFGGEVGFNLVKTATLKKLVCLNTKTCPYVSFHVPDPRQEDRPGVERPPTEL
measured.quantity: Control

{"columns": ["molecule", "measurement.target", "measured.quantity", "test.result"],
 "data": [
  ["CCCCC(C(=O)Nc1ccccc1)C(=O)Nc1ccccc1", "Prostaglandin G/H synthase 1 (Ovis aries) (UniProt P05979)", "Control", "Insoluble"],
  ["CCCCC(C(=O)Nc1ccc(OC)cc1)C(=O)Nc1ccc(OC)cc1", "Prostaglandin G/H synthase 1 (Ovis aries) (UniProt P05979)", "Control", "Insoluble"],
  ["COc1ccc(NC(=O)CC(=O)Nc2ccc(OC)cc2)cc1", "Prostaglandin G/H synthase 1 (Ovis aries) (UniProt P05979)", "Control", "Insoluble"],
  ["CCCCC(C(=O)Nc1ccc(Cl)cc1)C(=O)Nc1ccc(Cl)cc1", "Prostaglandin G/H synthase 1 (Ovis aries) (UniProt P05979)", "Control", "Insoluble"]
]}
